Target sequence: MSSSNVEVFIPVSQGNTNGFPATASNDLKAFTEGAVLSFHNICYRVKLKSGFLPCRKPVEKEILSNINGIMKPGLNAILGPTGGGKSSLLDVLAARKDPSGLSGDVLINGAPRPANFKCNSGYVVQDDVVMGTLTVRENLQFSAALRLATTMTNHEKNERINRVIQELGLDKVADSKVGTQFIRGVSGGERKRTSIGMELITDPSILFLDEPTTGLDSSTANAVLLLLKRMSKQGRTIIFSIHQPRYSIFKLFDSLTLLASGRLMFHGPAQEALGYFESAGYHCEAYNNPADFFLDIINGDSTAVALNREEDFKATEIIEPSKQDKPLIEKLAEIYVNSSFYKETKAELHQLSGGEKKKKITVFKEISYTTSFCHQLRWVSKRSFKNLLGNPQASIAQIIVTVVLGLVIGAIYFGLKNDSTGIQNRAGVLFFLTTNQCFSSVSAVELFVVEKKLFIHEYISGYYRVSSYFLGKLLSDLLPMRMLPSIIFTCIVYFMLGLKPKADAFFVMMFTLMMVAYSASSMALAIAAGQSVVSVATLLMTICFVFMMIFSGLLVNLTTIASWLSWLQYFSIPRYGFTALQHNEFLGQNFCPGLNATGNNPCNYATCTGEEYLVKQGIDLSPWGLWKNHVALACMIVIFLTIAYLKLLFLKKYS

{"sampleSmiles": "COc1ccc(-n2nnc(-c3ccccc3NC(=O)c3cnc4ccccc4c3)n2)cc1", "IC50 (nM)": 228}
{"sampleSmiles": "O=C(Nc1ccccc1-c1nnn(-c2ccccc2)n1)c1ccc2c(c1)OCCO2", "IC50 (nM)": 190}
{"sampleSmiles": "COc1ccc(-n2nnc(-c3ccccc3-n3nnc(-c4ccc(C(F)(F)F)cc4)n3)n2)cc1", "IC50 (nM)": 15800}
{"sampleSmiles": "O=C(Nc1ccccc1-c1nnn(-c2ccccc2)n1)c1ccncc1", "IC50 (nM)": 287}
{"sampleSmiles": "O=C(Nc1ccccc1-c1nnn(-c2ccccc2)n1)C12CC3CC(CC(C3)C1)C2", "IC50 (nM)": 1060}
